- study-target: Rhodopsin kinase GRK7 (Homo sapiens) (UniProt Q8WTQ7);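 note: reported figures are mean percent inhibition of GRK7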
- Sequence (Q8WTQ7 whole entry): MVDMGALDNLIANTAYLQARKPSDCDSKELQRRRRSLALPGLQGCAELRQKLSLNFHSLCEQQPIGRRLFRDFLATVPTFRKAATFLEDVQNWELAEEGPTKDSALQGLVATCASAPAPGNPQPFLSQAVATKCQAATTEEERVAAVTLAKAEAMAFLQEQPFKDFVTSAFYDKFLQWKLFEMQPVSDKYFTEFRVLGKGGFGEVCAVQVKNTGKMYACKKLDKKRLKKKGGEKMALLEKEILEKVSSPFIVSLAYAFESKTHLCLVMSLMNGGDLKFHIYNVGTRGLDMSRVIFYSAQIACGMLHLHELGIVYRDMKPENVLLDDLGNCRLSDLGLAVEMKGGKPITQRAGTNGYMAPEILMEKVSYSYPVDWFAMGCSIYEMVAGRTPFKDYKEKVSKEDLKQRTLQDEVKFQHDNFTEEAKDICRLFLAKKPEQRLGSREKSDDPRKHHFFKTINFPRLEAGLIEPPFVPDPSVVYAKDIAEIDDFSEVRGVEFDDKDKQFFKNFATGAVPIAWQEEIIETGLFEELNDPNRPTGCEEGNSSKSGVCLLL
- conditions: at 0.1 µM
reported-endpoint: inhibition
Could you give the number and then its unit, please?

# count of solved cases: 9
- smiles-representation: "Cc1nnc(-c2cccc(-c3ccc(C(=O)NCC4CC4)cc3)c2)o1"
  reported-endpoint: "inhibition"
  value: "6.78%"
- smiles-representation: "Fc1ccc(Nc2nccc(-c3c(-c4ccc(C(F)(F)F)cc4)nn4ncccc34)n2)cc1F"
  reported-endpoint: "inhibition"
  value: "2.15%"
- smiles-representation: "COc1c(C(N)=O)cc(-c2ccc(Cl)cc2)cc1-c1ccc(S(N)(=O)=O)cc1"
  reported-endpoint: "inhibition"
  value: "10.6%"
- smiles-representation: "COc1ccc(Nc2ncc(-c3ccccc3)o2)cc1OC"
  reported-endpoint: "inhibition"
  value: "-1.93%"
- smiles-representation: "Cn1c(-c2nonc2N)nc2cnccc21"
  reported-endpoint: "inhibition"
  value: "4.22%"
- smiles-representation: "CS(=O)(=O)CCNCc1ccc(-c2ccc3ncnc(Nc4ccc(OCc5ccccc5)cc4)c3c2)o1"
  reported-endpoint: "inhibition"
  value: "4.51%"
- smiles-representation: "CCCNc1cccc(-n2ncc3c(N/N=C/c4ccncc4)ncnc32)c1"
  reported-endpoint: "inhibition"
  value: "2.68%"
- smiles-representation: "COc1ccccc1-c1cc(/C=C2\\C(=O)Nc3ncc(Br)cc32)cc(Br)c1O"
  reported-endpoint: "inhibition"
  value: "28.7%"
- smiles-representation: "CCN1CCC(C(=O)Nc2n[nH]c3nnc(-c4cccc(F)c4F)cc23)CC1"
  reported-endpoint: "inhibition"
  value: "3.51%"

// next item, inhibition requested
Q: // Input: CN1CCC(n2cnc(-c3ccc(F)cc3)c2-c2ccnc(NCCO)n2)CC1 . Output its inhibition only.
Ans: 4.41%
